Reference source for all entries: paper PMC10056636

system: Acinetobacter baumannii (ATCC 19606); assay: Antibacterial whole-cell growth inhibition (MIC, CO-ADD); format: cell-based; details: Acinetobacter baumannii, ATCC19606; A. baumannii; two replicates per cell; read-out: MIC
OUTCOME_MEASURE: MIC (µg/mL)
One number for each entry, in µg/mL.

Please supply MIC for each of the following items, keeping them in order.
1. COC(=O)/C(CCC=C(C)C)=C1\[C@@H](OC(C)=O)C[C@@]2(C)[C@@H]1C[C@@H](O)[C@@H]1[C@@]3(C)CC[C@H](NCCCNCCCCNCCCN)[C@@H](C)C3CC[C@@]12C (some centres unmarked)
2. COC(=O)/C(CCC=C(C)C)=C1\[C@@H](OC(C)=O)C[C@@]2(C)[C@@H]1C[C@@H](O)[C@@H]1[C@@]3(C)CC[C@H](NCCCNCCCCN)[C@@H](C)C3CC[C@@]12C (some centres unmarked)
3. CC(=O)O[C@H]1C[C@@]2(C)[C@@H](C[C@@H](O)[C@H]3[C@@]4(C)CC[C@H](NCCCNCCCCNCCCN)[C@@H](C)[C@@H]4CC[C@@]32C)/C1=C(\CCC=C(C)C)C(=O)O

1. 32
2. 32
3. 32
